measurement_target: Human GlyT1 (human) (UniProt P48067)
Sequence (P48067 whole entry): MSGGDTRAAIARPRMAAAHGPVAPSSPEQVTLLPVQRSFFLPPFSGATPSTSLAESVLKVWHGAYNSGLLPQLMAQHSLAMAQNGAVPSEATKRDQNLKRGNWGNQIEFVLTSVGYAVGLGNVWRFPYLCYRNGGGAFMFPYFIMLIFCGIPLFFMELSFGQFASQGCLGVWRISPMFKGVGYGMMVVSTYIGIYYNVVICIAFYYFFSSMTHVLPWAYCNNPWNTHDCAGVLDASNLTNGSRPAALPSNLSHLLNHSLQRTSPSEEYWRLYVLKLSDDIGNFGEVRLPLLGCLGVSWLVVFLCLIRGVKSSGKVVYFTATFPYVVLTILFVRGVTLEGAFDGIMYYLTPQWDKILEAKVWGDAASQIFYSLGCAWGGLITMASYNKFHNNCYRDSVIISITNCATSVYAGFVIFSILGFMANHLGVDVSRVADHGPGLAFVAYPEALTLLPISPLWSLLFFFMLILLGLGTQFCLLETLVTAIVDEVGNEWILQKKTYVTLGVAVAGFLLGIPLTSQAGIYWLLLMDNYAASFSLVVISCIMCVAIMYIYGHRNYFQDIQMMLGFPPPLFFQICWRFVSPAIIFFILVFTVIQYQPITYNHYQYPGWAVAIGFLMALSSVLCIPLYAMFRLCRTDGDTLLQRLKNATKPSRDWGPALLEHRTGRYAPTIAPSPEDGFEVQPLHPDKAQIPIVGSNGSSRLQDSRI
observation_type: ΔTm(SPA-TS): shift of the melting temperature of GlyT1, read by binding of [3H]-Org24598 (°C)

binder	recorded_measurement
Sb_GlyT1#4 (VHH) VHH: QVQLVESGGGLVQAGGSLRLSCAASGFPVYAYVMAWYRQAPGKEREWVAAIKSQGVSTYYADSVKGRFTISRDNAKNTVYLQMNSLKPEDTAVYYCYVYVGTSYTGQGTQVTVS	2.1

(a) Sb_GlyT1#5 (VHH) VHH: QVQLVESGGGLVQAGGSLRLSCAASGFPVMNRWMAWYRQAPGKEREWVAAVASYGETTRYADSVKGRFTISRDNAKNTVYLQMNSLKPEDTAVYYCNVKDWGWWTRAYDYWGQGTQVTVS
(b) Sb_GlyT1#6 (VHH) VHH: QVQLVESGGGLVQAGGSLRLSCAASGFPVVYYEMYWYRQAPGKEREWVAAITSSGWYTHYADSVKGRFTISRDNAKNTVYLQMNSLKPEDTAVYYCNVKDWGASWKQYDYWGQGTQVTVS
Hi there! Just curious which has the higher ΔTm(SPA-TS): shift of the melting temperature of GlyT1, read by binding of [3H]-Org24598 between a and b . State your choice using its label. b
(b: 8.8 °C, a: 2.6 °C)
